# Target Desc: glucocorticoid receptor (GR) recombinant ligand binding domain (LBD) (Homo sapiens (Human), UniProt P04150)
# Sequence (P04150 524-758): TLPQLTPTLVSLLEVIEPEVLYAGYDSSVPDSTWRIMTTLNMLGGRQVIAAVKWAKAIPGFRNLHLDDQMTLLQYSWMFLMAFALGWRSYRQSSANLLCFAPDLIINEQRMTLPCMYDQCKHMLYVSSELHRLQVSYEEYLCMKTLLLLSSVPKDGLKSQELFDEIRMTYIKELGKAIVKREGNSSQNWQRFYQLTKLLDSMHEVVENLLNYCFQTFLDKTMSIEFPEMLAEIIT
# Procedure Text: GR binding fluorescence polarisation (FP) assay
# Condition Label: displacement of fluorescently tagged ligand
Readout Type: IC50 (nM)
Form entry: value (nM) — number only.

# input compound: COc1cc2c(cnn2-c2ccc(F)cc2)cc1C1(Cc2ccccc2)CCN(C(=O)c2cncs2)C1 (stereo not shown) [Example 231] ; wanted: its IC50 13

# input compound: CCCn1cc(S(=O)(=O)N2CCC(Cc3ccccc3)(c3cc4cnn(-c5ccc(F)cc5)c4cc3OC)C2)cn1 (stereo not shown) [Example 162] ; wanted: its IC50 18

# input compound: Cc1cc2c(cnn2-c2ccc(=O)n(C)c2)cc1C1(Cc2ccccc2)CCN(S(=O)(=O)c2ccccc2)C1 (stereo not shown) [Example 294] ; wanted: its IC50 4

# input compound: Cc1cc2c(cnn2-c2ccc(F)cc2)cc1N1CCN(S(C)(=O)=O)C2(CC2)C1 [Example 58] ; wanted: its IC50 32

# input compound: CCCn1cc(S(=O)(=O)N2CCN(c3cc4cnn(-c5ccc(F)cc5)c4cc3C)CC23CC3)cn1 [Example 60] ; wanted: its IC50 8

# input compound: CCCn1cc(S(=O)(=O)N2CCN(c3cc4cnn(-c5ccc(F)cc5)c4cc3C)C(c3ccccc3)C2)cn1 (stereo not shown) [Example 86] ; wanted: its IC50 162

# input compound: CCCn1cc(S(=O)(=O)N2CCC(COC)(c3cc4cnn(-c5ccc(F)cc5)c4cc3C)CC2)cn1 [Example 24] ; wanted: its IC50 84

----------
For each record, write down the corresponding pIC50.
# Target Desc: glucocorticoid receptor (GR) recombinant ligand binding domain (LBD) (Homo sapiens (Human))
# Procedure Text: GR binding fluorescence polarisation (FP) assay
# Condition Label: displacement of fluorescently tagged ligand
pIC50 here is simply -log10 of the concentration when that concentration is written in mol/L.

# input compound: Cc1cc2c(cnn2-c2ccc(F)cc2)cc1C1(Cc2ccccc2)CCN(S(=O)(=O)c2cncs2)C1 (stereo not drawn) ; wanted: its pIC50 6.57

# input compound: C[C@@H]1CN(S(C)(=O)=O)[C@H](C)CN1c1ccc2c(cnn2-c2ccc(F)cc2)c1 ; wanted: its pIC50 6.37

# input compound: CCCn1cc(S(=O)(=O)N2CCC(Cc3ccccc3)(c3cc4cnn(-c5ccc(F)cc5)c4cc3C)CC2)cn1 ; wanted: its pIC50 7.17

# input compound: CCCn1cc(S(=O)(=O)N2CC=C(c3cc4cnn(-c5ccc(F)cc5)c4cc3C)CC2)cn1 ; wanted: its pIC50 6.66

# input compound: Cc1cc2c(cnn2-c2ccc(=O)n(C)c2)cc1C1(Cc2ccccc2)CCN(C(=O)C(C)(F)F)C1 (stereo not drawn) ; wanted: its pIC50 7.74

# input compound: Cc1cc2c(cnn2-c2ccc(F)cc2)cc1C1(Cc2ccc(C(F)(F)F)cc2)CCN(S(=O)(=O)c2cnn(C)c2)C1 (stereo not drawn) ; wanted: its pIC50 6.71

# input compound: Cc1cc2c(cnn2-c2ccc(F)cc2)cc1N1CCN(S(=O)(=O)c2cnn(CC3CC3)c2)[C@H](C)C1 ; wanted: its pIC50 7.02

# input compound: Cc1cc2c(cnn2-c2ccc(F)cc2)cc1C1(Cc2cccc(C(F)(F)F)c2)CCN(S(C)(=O)=O)C1 (stereo not drawn) ; wanted: its pIC50 7.62

# input compound: Cc1cc2c(cnn2-c2ccc(F)cc2)cc1N1CCC2(CCCN2S(C)(=O)=O)CC1 ; wanted: its pIC50 5.14

# input compound: CCCn1cc(S(=O)(=O)N2CC[C@@H](c3ccc4c(cnn4-c4ccc(F)cc4)c3)C[C@H]2C)cn1 ; wanted: its pIC50 6.28

# input compound: Cc1cc2c(cnn2-c2ccc(F)cc2)cc1C1(CC#CC2CC2)CCN(S(=O)(=O)c2cnn(C)c2)C1 (stereo not drawn) ; wanted: its pIC50 7.25

# input compound: Cn1cc(S(=O)(=O)N2CCN(c3ccc4c(cnn4-c4ccc(F)cc4)c3)C[C@H]2Cc2ccccc2)cn1 ; wanted: its pIC50 6.03

# input compound: CC(=O)N1CCC(Cc2ccc(F)cc2)(c2cc3cnn(-c4ccc(F)cc4)c3cc2C)C1 (stereo not drawn) ; wanted: its pIC50 8.22

# input compound: Cc1cc2c(cnn2-c2ccc(F)cc2)cc1C1(Cc2ccc(F)cc2)CCN(S(C)(=O)=O)C1 (stereo not drawn) ; wanted: its pIC50 8.05

# input compound: COc1ccc(S(=O)(=O)N2CCC(Cc3ccccc3)(c3cc4cnn(-c5ccc(=O)n(C)c5)c4cc3C)C2)cn1 (stereo not drawn) ; wanted: its pIC50 7.96

# input compound: CNS(=O)(=O)C1CCN(c2cc3cnn(-c4ccc(F)cc4)c3cc2C)C1 (stereo not drawn) ; wanted: its pIC50 6.94

# input compound: CCCn1cc(S(=O)(=O)N2CCN(c3ccc4c(cnn4-c4ccc(F)cc4)c3)CC2(C)C)cn1 ; wanted: its pIC50 5.95

# input compound: Cc1cc2c(cnn2-c2ccc(F)cc2)cc1N1CCC2(CCN(S(C)(=O)=O)CC2)C1 ; wanted: its pIC50 6.21

# input compound: Cc1cc2c(cnn2-c2ccc(F)cc2)cc1N1CCC2CN(S(C)(=O)=O)CC21 (stereo not drawn) ; wanted: its pIC50 7.35

# input compound: Cc1cc2c(cnn2-c2ccc(=O)n(C)c2)cc1C1(Cc2ccccc2)CCN(S(=O)(=O)C2CC2)C1 (stereo not drawn) ; wanted: its pIC50 7.89

# input compound: Cc1cc2c(cnn2-c2cnn(C)c2C)cc1C1(Cc2ccccc2)CCN(S(=O)(=O)c2cnn(C)n2)C1 (stereo not drawn) ; wanted: its pIC50 7.62

# input compound: Cc1cc2c(cnn2-c2ccc(F)cc2)cc1N1CCN(S(=O)(=O)c2cnn(C(C)C)n2)C2(CC2)C1 ; wanted: its pIC50 7.46

# input compound: Cc1cc2c(cnn2-c2ccc(F)cc2)cc1N1CCCC(N(C)S(=O)(=O)c2cnn(C)c2)C1 (stereo not drawn) ; wanted: its pIC50 6.76

# input compound: COc1cccc(S(=O)(=O)N2CCC(Cc3ccccc3)(c3cc4cnn(-c5ccc(=O)n(C)c5)c4cc3C)C2)c1 (stereo not drawn) ; wanted: its pIC50 7.96

# input compound: Cc1cc2c(cnn2-c2ccc(=O)n(C)c2)cc1C1(Cc2ccccc2)CCN(C(=O)c2ccnnc2)C1 (stereo not drawn) ; wanted: its pIC50 6.77

# input compound: Cc1cc2c(cnn2-c2ccc(=O)n(C)c2)cc1C1(Cc2ccccc2)CCN(S(=O)(=O)c2ccnn2C)C1 (stereo not drawn) ; wanted: its pIC50 8.21

# input compound: CCCn1cc(S(=O)(=O)N2CCN(c3ccc4c(cnn4-c4ccc(F)cc4)c3)C[C@H]2C)c(C)n1 ; wanted: its pIC50 6.60

# input compound: CC(=O)N1CCC(S(=O)(=O)N2CCC(Cc3ccccc3)(c3cc4cnn(-c5ccc(F)cc5)c4cc3C)C2)CC1 (stereo not drawn) ; wanted: its pIC50 7.55

# input compound: C[C@@H]1CN(c2ccc3c(cnn3-c3ccc(F)cc3)c2)CCN1S(=O)(=O)c1ccc(F)c(F)c1 ; wanted: its pIC50 6.26

# input compound: CS(=O)(=O)N1CCC(Cc2ccccc2)(c2ccc3c(cnn3-c3ccc(F)cc3)c2)C1=O (stereo not drawn) ; wanted: its pIC50 7.59
